- Target under test: Hemagglutinin of influenza A/Japan/305/57 (H2N2), on inactivated whole virions (Influenza A virus A/Japan/305/1957 …, UniProt P03451 16-562)
- Procedure text: ELISA, B cell culture supernatant on inactivated whole virions
Measurement label: OD450
Include the unit right after the number.

# input Item under review: TCN-523 (5248_A17) (antibody, V domains shown) VH: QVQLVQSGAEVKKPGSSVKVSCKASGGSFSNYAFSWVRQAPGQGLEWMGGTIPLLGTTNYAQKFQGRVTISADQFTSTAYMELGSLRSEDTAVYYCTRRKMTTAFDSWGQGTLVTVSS VL: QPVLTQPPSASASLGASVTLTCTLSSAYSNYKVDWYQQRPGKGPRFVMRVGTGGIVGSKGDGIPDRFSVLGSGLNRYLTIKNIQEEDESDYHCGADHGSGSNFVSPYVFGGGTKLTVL . Reported OD450?
# output 1.62 OD450
